- Study System: T1, recombinant hIL-6R protein, monomeric form (human, UniProt P08887 20-358)
- T1 construct: also called monomeric hIL-6R; Human IL6R
- T1 sequence: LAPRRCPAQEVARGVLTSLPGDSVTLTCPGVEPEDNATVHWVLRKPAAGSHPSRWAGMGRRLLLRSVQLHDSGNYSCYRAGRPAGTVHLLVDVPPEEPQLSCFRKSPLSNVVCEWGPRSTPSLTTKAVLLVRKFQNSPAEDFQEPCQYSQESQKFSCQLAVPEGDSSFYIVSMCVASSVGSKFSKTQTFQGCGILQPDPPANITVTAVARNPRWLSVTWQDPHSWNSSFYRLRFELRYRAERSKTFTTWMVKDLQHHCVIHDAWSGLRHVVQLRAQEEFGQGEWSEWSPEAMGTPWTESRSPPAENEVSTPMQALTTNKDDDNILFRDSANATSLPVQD
- Experimental Details: SPR (BIAcore), antibody captured on goat anti-mouse Fc, monomeric IL-6R 1.25-40 nM injected
Recorded Endpoint: koff
Please don't drop the unit; write it after the number.

## Input Data request, read-out koff, for VQ8F11-21 (antibody, V domains shown, Human variable regions with mouse constant region; also called VQ8F11-21 mIgG2a) VH: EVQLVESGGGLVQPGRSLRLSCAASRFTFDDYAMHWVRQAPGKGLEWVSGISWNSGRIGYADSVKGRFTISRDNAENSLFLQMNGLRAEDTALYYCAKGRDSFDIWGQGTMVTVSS VL: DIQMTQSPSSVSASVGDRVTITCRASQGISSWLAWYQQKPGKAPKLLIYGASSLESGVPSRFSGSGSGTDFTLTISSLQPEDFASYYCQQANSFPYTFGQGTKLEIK
## Output 4.38e-05 s⁻¹
